src = paper PMC3406267

Ki data for CB2R (Mus musculus, UniProt P47936) follow.
Give the quantity in nM, number only.

Example results:
molecule: Cc1cc2c(cc1Cl)Cc1c(C(=O)NC34CC5CC(CC(C5)C3)C4)nn(-c3ccc(Cl)cc3Cl)c1-2 [Compound 24]
unit: nM
Ki: 1350
//
molecule: Cc1cc2c(cc1Cl)-c1c(c(C(=O)NC3CC4CCC3(C)C4(C)C)nn1-c1ccc(Cl)cc1Cl)C2 (stereo not drawn) [Compound 6]
unit: nM
Ki: 474
//
molecule: Cc1cc2c(cc1Cl)-c1c(c(C(=O)NC3CCCCCC3)nn1-c1ccc(Cl)cc1Cl)C2 [Compound 16]
unit: nM
Ki: 1520
//
molecule: Cc1cc2c(cc1Cl)-c1c(c(C(=O)Nc3cccc4ccccc34)nn1-c1ccc(Cl)cc1Cl)C2 [Compound 18]
unit: nM
Ki: 1130
//
molecule: Cc1cc2c(cc1Cl)-c1c(c(C(=O)NC(C)c3cccc4ccccc34)nn1-c1ccc(Cl)cc1Cl)C2 (stereo not drawn) [Compound 19]
unit: nM
Ki: 2400
//
molecule: Cc1cc2c(cc1Cl)-c1c(c(C(=O)NC3C4CC5CC(C4)CC3C5)nn1-c1ccc(Cl)cc1Cl)C2 (stereo not drawn) [Compound 11]
unit: nM
Ki: 275
//
molecule: Cc1cc2c(cc1Cl)-c1c(c(C(=O)NC3CC(C)CCC3C(C)C)nn1-c1ccc(Cl)cc1Cl)C2 (stereo not drawn) [Compound 9]
unit: nM
Ki: 3100
//
molecule: Cc1cc2c(cc1Cl)-c1c(c(C(=O)NC34CC5CC(CC(C5)C3)C4)nn1-c1ccc(Cl)cc1Cl)C2 [Compound 10]
unit: nM
Ki: 425

Consider the record given below.
Inquiry: May I ask what Ki has been recorded for Cc1cc2c(cc1Cl)-c1c(c(C(=O)N[C@H]3CC[C@H](C)CC3)nn1-c1ccc(Cl)cc1Cl)C2 [Compound 14] ?
Reply text: 325

* * *

# assay.system: CB1R (Mus musculus, UniProt P47746)
# Sequence (P47746 whole entry): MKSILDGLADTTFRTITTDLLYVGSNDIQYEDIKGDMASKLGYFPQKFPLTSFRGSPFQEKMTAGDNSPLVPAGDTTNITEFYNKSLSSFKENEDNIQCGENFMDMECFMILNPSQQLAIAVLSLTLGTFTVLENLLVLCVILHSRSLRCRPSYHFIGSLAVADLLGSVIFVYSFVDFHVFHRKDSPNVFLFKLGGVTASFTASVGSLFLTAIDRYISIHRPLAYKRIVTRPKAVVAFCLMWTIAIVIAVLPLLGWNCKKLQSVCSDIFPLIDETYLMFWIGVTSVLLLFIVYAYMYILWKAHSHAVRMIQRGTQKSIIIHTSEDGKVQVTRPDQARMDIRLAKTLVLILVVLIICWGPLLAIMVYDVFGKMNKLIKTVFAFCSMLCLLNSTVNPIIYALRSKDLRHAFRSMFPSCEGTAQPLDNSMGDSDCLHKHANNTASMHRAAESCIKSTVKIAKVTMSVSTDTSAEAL
Ki less than 3 µM is T; Ki greater than or equal to 3 µM is F.

Reference set, count: 4
compound: Cc1cc2c(cc1Cl)-c1c(c(C(=O)N[C@H]3CC[C@H](C)CC3)nn1-c1ccc(Cl)cc1Cl)C2
assay.system: CB1R (Mus musculus, UniProt P47746)
class.label: F
//
compound: Cc1cc2c(cc1Cl)-c1c(c(C(=O)NC3CC4CCC3(C)C4(C)C)nn1-c1ccc(Cl)cc1Cl)C2 (stereo not drawn)
assay.system: CB1R (Mus musculus, UniProt P47746)
class.label: T
//
compound: Cc1cc2c(cc1Cl)Cc1c(C(=O)NC34CC5CC(CC(C5)C3)C4)nn(-c3ccc(Cl)cc3Cl)c1-2
assay.system: CB1R (Mus musculus, UniProt P47746)
class.label: F
//
compound: Cc1cc2c(cc1Cl)-c1c(c(C(=O)NC3C4CC5CC(C4)CC3C5)nn1-c1ccc(Cl)cc1Cl)C2 (stereo not drawn)
assay.system: CB1R (Mus musculus, UniProt P47746)
class.label: F

We now examine a further compound.
Inquiry: Determine whether this compound shows Ki lower than 3 µM (ties excluded): Cc1cc2c(cc1Cl)-c1c(c(C(=O)NC(C)c3cccc4ccccc34)nn1-c1ccc(Cl)cc1Cl)C2 (stereo not drawn)
Reply text: F

* * *

# assay.system: CB1R (Mus musculus, UniProt P47746)
Each entry below carries its reported Ki.

Would you please look over these solved cases?
molecule: Cc1cc2c(cc1Cl)-c1c(c(C(=O)NC3CC(C)CCC3C(C)C)nn1-c1ccc(Cl)cc1Cl)C2 (stereo not shown)
Ki: 1250 nM

molecule: Cc1cc2c(cc1Cl)-c1c(c(C(=O)NC34CC5CC(CC(C5)C3)C4)nn1-c1ccc(Cl)cc1Cl)C2
Ki: 1300 nM

molecule: Cc1cc2c(cc1Cl)-c1c(c(C(=O)Nc3cccc4ccccc34)nn1-c1ccc(Cl)cc1Cl)C2
Ki: > 5000 nM

Inquiry: Data request, read-out Ki, for `Cc1cc2c(cc1Cl)-c1c(c(C(=O)NC3CCCCCC3)nn1-c1ccc(Cl)cc1Cl)C2`
Reply text: 3750 nM
